Assay: in vivo
Set-up: species or system Sprague-Dawley rats
Settings: male, Sprague-Dawley, rat, plasma, iv, given IV, AUC0-8h, read-out: TFV AUC, Mean
readout.type: AUC (ng·h/mL)

{"structure.smiles": "C[C@H](Cn1cnc2c(N)ncnc21)OCP(=O)(O)O", "readout.type": "AUC", "value.observed": 3210}

###

System: P-gp
Test: MDCK-MDR1 efflux studies
Type: in vitro ADME, canine
Details: dog, MDCK-MDR1, with none (0 µM GF918)
Counter-ions that a name gives are not always drawn.
readout.type: efflux ratio at 2 h, 5 µM

{"compound": "CC(C)OC(=O)OCOP(=O)(CO[C@H](C)Cn1cnc2c(N)ncnc21)OCOC(=O)OC(C)C [TDF, Tenofovir disoproxil fumarate]", "measured.on": "P-gp", "value.observed": 44.2}
